Target: T1, PARP4 BRCT-WGR-CAT WT (human, UniProt Q9UKK3 1-573)
T1 sequence: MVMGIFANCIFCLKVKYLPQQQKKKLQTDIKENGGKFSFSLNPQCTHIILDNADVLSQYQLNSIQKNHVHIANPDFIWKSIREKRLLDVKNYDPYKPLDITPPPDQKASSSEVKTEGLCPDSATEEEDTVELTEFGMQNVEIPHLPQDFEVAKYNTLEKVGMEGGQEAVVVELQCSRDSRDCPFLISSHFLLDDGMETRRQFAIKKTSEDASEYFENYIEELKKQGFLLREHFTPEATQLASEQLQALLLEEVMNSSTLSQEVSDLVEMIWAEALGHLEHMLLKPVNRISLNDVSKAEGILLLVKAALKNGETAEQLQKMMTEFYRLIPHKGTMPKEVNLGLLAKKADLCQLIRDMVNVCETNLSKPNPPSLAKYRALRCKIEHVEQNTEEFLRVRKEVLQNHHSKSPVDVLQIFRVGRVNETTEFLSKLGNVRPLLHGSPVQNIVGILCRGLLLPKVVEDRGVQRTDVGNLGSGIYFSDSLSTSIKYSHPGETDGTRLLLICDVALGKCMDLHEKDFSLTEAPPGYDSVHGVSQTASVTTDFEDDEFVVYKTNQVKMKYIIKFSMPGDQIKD
Assay: FP; 3 or 15 nM probe; FP: 50 mM Tris pH 7.5, 50 mM NaCl, 1 mM MgCl2, 0.05% NP40, 2 mM DTT, 5% glycerol, 25 ug/ml BSA, room temp 30 min; EMSA: 50 mM Tris pH 7.5, 50 mM NaCl, 4% Ficoll PM400, 0.05% NP40, 2 mM DTT, 0-18 uM protein, room temp 30 min, gel at 4 C
Conditions: protein: recombinant; tags: N-terminal His-SUMO removed by TEV; label: 5'-6-FAM; predicted intramolecular fold
Measured Quantity: Kd (µM)
Kindly answer with a numeric value in µM, unit omitted.

Quick check: Kd of vtRNA1-3 (structured_RNA) RNA: GGCUGGCUUUAGCUCAGCGGUUACUUCGCGUGUCAUCAAACCACCUCUCUGGGUUGUUCGAGACCCGCGGGCGCUCUCCAGCCCUCUU ?
27
